From: the supplement of paper PMC12042874

# Method summary: amyloid nucleation score (Sup35N fusion, yeast selection) (log enrichment); library NNK1; higher = more nucleation; inactive = no reads after selection;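 note: zero at mode of non-aggregating sequences after 7 days selection at 30°C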
The reader will find reported amyloid nucleation score values listed item by item below.
Test readout: amyloid nucleation score

item_sequence=YSNLYFSLNNGNPVLKGYNG test_readout="amyloid nucleation score" recorded_value=-0.17
item_sequence=MDWLEYHMSFCSHV test_readout="amyloid nucleation score" recorded_value=0.07
item_sequence=MAFMLWLDYW test_readout="amyloid nucleation score" recorded_value=0.395
item_sequence=VRGLWFYN test_readout="amyloid nucleation score" recorded_value=0.088
item_sequence=SLIKLVYWSHARNNCELW test_readout="amyloid nucleation score" recorded_value=3.5
item_sequence=DNSPSSWFDWDLGEIGVRVE test_readout="amyloid nucleation score" recorded_value=-0.469
item_sequence=GGHHVSPVCLEWNNLRWDI test_readout="amyloid nucleation score" recorded_value=0.897
item_sequence=NILDMCLKRYIFMLE test_readout="amyloid nucleation score" recorded_value=1.44

====

# Method summary: amyloid nucleation score (Sup35N fusion, yeast selection) (log enrichment); library NNK2; higher = more nucleation; inactive = no reads after selection
Answer f if amyloid nucleation score is under 1, and t if it is 1 or more.

substance=AGEQEVDGPVIQRWSGFTTR cat=t
substance=NGAYNACNNTGYRTHAY cat=f
substance=DDSFGVAVMKVWEMRGWSAL cat=t
substance=AGVSLFVHGNL cat=t
substance=QWWRYS cat=t
substance=CRMHVFVEC cat=f
substance=TSIYYISNIA cat=f
substance=YWFPEASMFLIPL cat=f

====

# Method summary: amyloid nucleation score (Sup35N fusion, yeast selection) (log enrichment); library NNK3; higher = more nucleation; inactive = no reads after selection
Test readout: amyloid nucleation score

substance=TLGLRADRYKLLYFFEGFLI recorded_value=inactive
substance=GIWCDITHGNRMAWNYVLIR recorded_value=inactive
substance=TFVDPGRV recorded_value=-0.565
substance=RSPEFCMS recorded_value=inactive
substance=SWVTVYTVMRVWVTFGNRRR recorded_value=inactive
substance=NGFLNSINGTVMVQGYSTAF recorded_value=inactive
substance=SGIIWQYNARLE recorded_value=inactive
substance=SFLTDMPKTKVYCAMNLPMI recorded_value=-0.121
substance=TWRNLILRFGCGGFSKTTFK recorded_value=inactive
substance=RNHIALSLGWIQEDVIGSWN recorded_value=0.991
substance=LSSLVSFVITQLRLLMKTER recorded_value=inactive
substance=LSLISVSLG recorded_value=inactive
substance=LSVGVSRCLNPLLTIGSGRE recorded_value=1.28
substance=FRRLHQGLWKMYS recorded_value=inactive
substance=FRCTRGSIVWSFYFVRNLMI recorded_value=inactive
substance=TNVRALA recorded_value=inactive
substance=NKDFGFSYIRTFPRILKVW recorded_value=inactive
substance=FGTCLNLYL recorded_value=1.3
substance=MQLIIIWATRK recorded_value=1.43
substance=VFNWYEVVFTFWCNMTANGM recorded_value=1.49
substance=RQHGMLCSRSTRMVLFKS recorded_value=inactive
substance=SPDVLFESKYRFWDMLSQIA recorded_value=inactive
substance=SFTLPSIGWWYALFRSYWID recorded_value=inactive
substance=LRTAEDFETS recorded_value=-0.416
substance=LVYREGYIWVMFLIYSFWTV recorded_value=inactive
substance=PCYDWCLQSGR recorded_value=inactive
substance=VGSIYDSHNLPMSGHSDWNG recorded_value=inactive
substance=CVLSSRF recorded_value=inactive
substance=WNTGNMLPSVFTQMFA recorded_value=inactive
substance=ISTKDTLM recorded_value=inactive
substance=FWLGGVDLAPKVGKQTMNLA recorded_value=inactive
substance=MWWGWKRFHSMRNYDAYIQM recorded_value=inactive
substance=PLDSECEKDGHDTPYDYVVL recorded_value=inactive
substance=YYALKYVNLQLNKRNVTRWV recorded_value=inactive
substance=LGLILIVLLVRPVFDSKRLD recorded_value=inactive
substance=SCKGNVFVSSGWEFGAYFTG recorded_value=0.751
substance=SSITRVEKSCIFLCTALMLR recorded_value=inactive
substance=FTFWWDRLQNWKHIGFFGKV recorded_value=1.06
substance=RGLWLEQRAVNNYVGR recorded_value=-0.291
substance=ILTYINEMSHLPWV recorded_value=inactive
substance=TWQEVMNVQRTS recorded_value=inactive
substance=GSVYETNDTELLRVTLR recorded_value=inactive
substance=RYNWVYDFVLNRSSYWCW recorded_value=inactive
substance=VLCLLGSSVSS recorded_value=inactive
substance=VLYVIRNYSGDG recorded_value=1.62
substance=GLFESERIYMWAYHFR recorded_value=inactive
substance=GVLLNTSELGSNGMDSKTLD recorded_value=inactive
substance=SYCHRRLLSRVSLLVASSVK recorded_value=inactive
substance=NVKTGNKPRDTQSRYVLPES recorded_value=inactive
substance=YSIDLFIRESDFDVHKKHIS recorded_value=inactive
substance=FIDQVDIVVCWSTWAI recorded_value=inactive
substance=DRPSWNMRSLNFSGQSVR recorded_value=-0.59
substance=REMKWRLELLVGGKYRYHQL recorded_value=inactive
substance=YSCVVL recorded_value=inactive
substance=HPESCPGLGSLSGEPR recorded_value=inactive
substance=VHLWGGRGHQLVWVHVRWGV recorded_value=inactive
substance=FWRLRWYMRDGFSDYSGGEY recorded_value=0.719
substance=CPYVKSHSICDDSSGLPRLK recorded_value=inactive
substance=YIRLCSVFGTTWYARLDG recorded_value=0.459
substance=NNLMLV recorded_value=inactive
substance=NTAPNISRSVIVCYYDDGEK recorded_value=inactive
substance=RTFIKAKLP recorded_value=inactive
substance=HVNNTKSSLVRLSVLMHSVS recorded_value=inactive
substance=RRMLNAVEMSYRVGKFSFCW recorded_value=inactive
substance=LFSLCWRCTLLKLYCPNWCY recorded_value=inactive
substance=PNAEGFFSVSGFCVVLNQSM recorded_value=1.34
substance=ATYAGSVITGLCEDTLYRNC recorded_value=inactive
substance=REVRTGLNLIPRRIVSNHTF recorded_value=inactive
substance=DIQVFLTSSLQFIAEISVGG recorded_value=inactive
substance=RSTVYWFWRSSELLALRLHR recorded_value=inactive
substance=FNFLPNGWRGKVHIGYYGNT recorded_value=inactive
substance=CSCWTISLFCLWQTLRFPPI recorded_value=0.438

====

# Method summary: amyloid nucleation score (Sup35N fusion, yeast selection) (log enrichment); library NNK2; higher = more nucleation; inactive = no reads after selection
Answer NO if amyloid nucleation score is under 0.3, and YES if it is 0.3 or more.

substance=VRYTVTRTRGRYMVKCCENV cat=NO
substance=RVIWSPSRDRSSWFTESEYH cat=NO
substance=GSQVLCGLRLPARGFWSYIM cat=NO
substance=LELLSLIFSFG cat=YES
substance=YRPCGRTSPCGSGYKVSNEF cat=YES
substance=QLNAVDMAKPVVGLFREQSY cat=NO
substance=KGNTIKSCSRMMLHRQHVW cat=NO
substance=GCLTNTSSGMHWS cat=NO
substance=PMVFNHG cat=NO
substance=TLSVGVQL cat=NO
substance=TLSSKLFCVKASVRSMGPVV cat=YES
substance=EFWANRYGNHPLLGIHHCSP cat=NO
substance=MAGLTSWCGPHHTVWLTWNG cat=YES
substance=STWCRMANYLITCFVTKSRV cat=NO
substance=FIELMCWRSH cat=NO
substance=QFNYHNLNLTNFKSLCASTD cat=NO
substance=WGCWTVRSTT cat=YES

====

The reader will find reported amyloid nucleation score values listed item by item below.
# Method summary: amyloid nucleation score (Sup35N fusion, yeast selection) (log enrichment); library NNK2; higher = more nucleation; inactive = no reads after selection
Test readout: amyloid nucleation score

substance=KSEVWSYLI test_readout="amyloid nucleation score" recorded_value=4.51
substance=VGCFTRSIGHAM test_readout="amyloid nucleation score" recorded_value=0.257
substance=VITLRGAPYTEWLLRALLAS test_readout="amyloid nucleation score" recorded_value=0.734
substance=GLLGWMGAYGANPCYPTTLF test_readout="amyloid nucleation score" recorded_value=0.515
substance=HLEMRPAMRIPLLRTDFWKV test_readout="amyloid nucleation score" recorded_value=0.665
substance=ACDVDAMFTKMYSIFFR test_readout="amyloid nucleation score" recorded_value=0.479
substance=TCATTDGVR test_readout="amyloid nucleation score" recorded_value=1.04
substance=RKDLEVLNGLRICMVGSAPV test_readout="amyloid nucleation score" recorded_value=-0.055
substance=YIPMIKL test_readout="amyloid nucleation score" recorded_value=-0.794
substance=DHNGVKSTSHKSSFFMSTGR test_readout="amyloid nucleation score" recorded_value=0.056
substance=TASWNWLGIVRAGF test_readout="amyloid nucleation score" recorded_value=1.08
substance=LDSGHNGDVNGG test_readout="amyloid nucleation score" recorded_value=-0.45
substance=NADLMGIKSVKGS test_readout="amyloid nucleation score" recorded_value=-0.352
substance=NRYVFLGHCVPVRGATHFLV test_readout="amyloid nucleation score" recorded_value=0.173
substance=TFPSISTFARSLFFVYQVYP test_readout="amyloid nucleation score" recorded_value=-1.13
substance=KFFMPTYN test_readout="amyloid nucleation score" recorded_value=1.58
substance=DFCCWCPFCYVSWYEGIVMI test_readout="amyloid nucleation score" recorded_value=0.305
substance=SVYANILFNKACMRFNVVNG test_readout="amyloid nucleation score" recorded_value=0.23
substance=REALDHWVDRVTVRWVRICI test_readout="amyloid nucleation score" recorded_value=-0.474
substance=NEFIEVALSLYRVNCQRNFI test_readout="amyloid nucleation score" recorded_value=-1.5
substance=FIWSYVLSRGSV test_readout="amyloid nucleation score" recorded_value=-1.03
substance=SPCLVLL test_readout="amyloid nucleation score" recorded_value=0.2
substance=WPIMMYGKFVFDRHIHCGAL test_readout="amyloid nucleation score" recorded_value=0.141
substance=LLKARLLRSHLWVG test_readout="amyloid nucleation score" recorded_value=0.057
substance=SDICRREMHNTAIFLALF test_readout="amyloid nucleation score" recorded_value=1.56
substance=VLIALKLFWIVQWYICAICV test_readout="amyloid nucleation score" recorded_value=-0.099
substance=DFSIQWCTSSINYVLYFAI test_readout="amyloid nucleation score" recorded_value=-1.89
substance=VLTLPKRNHVHL test_readout="amyloid nucleation score" recorded_value=0.874
substance=RRAWGFLVMRVGTDPMMTGI test_readout="amyloid nucleation score" recorded_value=0.196
substance=RMCWELFT test_readout="amyloid nucleation score" recorded_value=0.022
substance=VGSNKGAIIGLMVGGMVVIA test_readout="amyloid nucleation score" recorded_value=2.33
